Test: Example 4: dose response of FKBP constructs 160-255, Ec50, Ec90 and fold change (raw and normalized to mCherry)
Format: cell-based
Details: fold change during initial analysis
Experimental: Additional experiments were performed for constructs FKBP-160-292.

{"molecule": "FKBP-231 (protein, Description of sequence: Construct Name: FKBP-231; Mutation(s): Q72R Q84E A117W V85R DRD G63M) HCPIKSRKGDVLHMHYTGKLEDMTEFDSSLPRNQPFVFSLGTGERIKGWDQGLLGMCEGEKRKLVIPSELGYGERGWPPKIPGGATLVFEVELLKIER", "FC (fold change)": 39.9}
{"molecule": "FKBP-211 (protein, Description of sequence: Construct Name: FKBP-211; Mutation(s): Q72R Q84E A117W V85R DRD M54A D62S) HCPIKSRKGDVLHAHYTGKLESGTEFDSSLPRNQPFVFSLGTGERIKGWDQGLLGMCEGEKRKLVIPSELGYGERGWPPKIPGGATLVFEVELLKIER", "FC (fold change)": 35.7}
{"molecule": "FKBP-242 (protein, Description of sequence: Construct Name: FKBP-242; Mutation(s): Q72R Q84E A117W DRD P118S) HCPIKSRKGDVLHMHYTGKLEDGTEFDSSLPRNQPFVFSLGTGEVIKGWDQGLLGMCEGEKRKLVIPSELGYGERGWSPKIPGGATLVFEVELLKIER", "FC (fold change)": 24.4}
{"molecule": "FKBP-209: FKBP13 DRD-AcGFP construct of Table 10 (protein, Description of sequence: Construct Name: FKBP-209; Mutation(s): Q72R Q84E A117W V85R DRD M54A K101W) HCPIKSRKGDVLHAHYTGKLEDGTEFDSSLPRNQPFVFSLGTGERIKGWDQGLLGMCEGEWRKLVIPSELGYGERGWPPKIPGGATLVFEVELLKIER", "FC (fold change)": 56.0}
